test system: M. chelonae (ATCC 35752); assay: microbe, parasite or virus in culture; format: cell-based, Mycobacterium chelonae; settings: Mycobacteroides chelonae, ATCC35752; M. chelonae; read-out: MIC
Numbered stars: 1 amine (or outer) side, 2 acyl side, 3 side chain; on linkers, the order of the positions; unused ones are H or OH. Bridge positions count the residues as written; N and C are the ends. Square brackets hold non-standard residues; d marks the D form. Peptide text beside a SMILES is read from it. * marks the point of attachment. ξ: configuration not given here. NMeTrp(4-OMe) = CN[CH](Cc1c[nH]c2cccc(OC)c12)C(=O)O; X1 = O=C(C(N[*:1])C(O)c1ccccc1)[*:2]; NMeI = CC[CH](C)[CH](NC)C(=O)O; ξNMe2Val = CC(C)C(C(=O)*)N(C)C; NMeT = CN[CH](C(=O)O)[CH](C)O; NMeL = CN[CH](CC(C)C)C(=O)O; NMeV = CN[CH](C(=O)O)C(C)C
In this section, each of the compounds is paired with its reported MIC.
REPORTED_PROPERTY: MIC (µM)

[[record]]
compound = "C/C=C/C[C@@H]1NC(=O)[C@H](CC(C)C)N2C(=O)C(C[C@H](C)[C@H]2O)N(C)C(=O)[C@H](C)NC(=O)[C@H](Cc2ccc(O)c([N+](=O)[O-])c2)NC(=O)[C@H](CC(C)C)N(C)C(=O)[C@H](Cc2cn(C(C)(C)C3CO3)c3ccccc23)NC1=O (stereo partly shown) [RUFI, rufomycin I]"
inequality_operator = "="
quantitative_readout = 4.24

[[record]]
compound = "CO[C@H](c1ccccc1)[C@@H]1NC(=O)[C@H](C)NC(=O)[C@H](C[C@@H](C)CO)N(C)C(=O)[C@H]([C@H](O)c2cn(C(C)(C)[C@@H]3CO3)c3ccccc23)NC(=O)[C@H]([C@H](C)C=C(C)C)NC(=O)[C@H](CC(C)C)N(C)C(=O)[C@H](C(C)C)NC1=O (stereo in doubt) [CYMA, cyclomarin A]"
inequality_operator = ">"
quantitative_readout = 5

[[record]]
compound = "CCC(C)C(C(=O)NC1C(=O)N(C)C(C(C)O)C(=O)NC(C(C)C)C(=O)N(C)C(CC(C)C)C(=O)NC(C(C)C)C(=O)N(C)C(C(C)C)C(=O)N(C)C(Cc2c[nH]c3cccc(OC)c23)C(=O)NC(C(C)C)C(=O)NC(C(O)c2ccccc2)C(=O)NC(C(C)C)C(=O)OC1C)N(C)C(=O)C(NC(=O)C(C(C)C)N(C)C)C(C)C (stereo not shown) [ECU, ecumicin] (ξNMe2Val-V[NMeI]T[NMeT]V[NMeL]V[NMeV][NMeTrp(4-OMe)]V[X1]V; ester 3-C; configuration not given here)"
inequality_operator = "="
quantitative_readout = 0.97

[[record]]
compound = "COc1nc2ccc(Br)cc2cc1[C@@H](c1ccccc1)[C@@](O)(CCN(C)C)c1cccc2ccccc12 [BDQ, bedaquiline]"
inequality_operator = "="
quantitative_readout = 0.46

[[record]]
compound = "O=[N+]([O-])c1cn2c(n1)OC[C@@H](OCc1ccc(OC(F)(F)F)cc1)C2 [PA824, pretomanid]"
inequality_operator = ">"
quantitative_readout = 8

[[record]]
compound = "NNC(=O)c1ccncc1 [INH, isoniazid]"
inequality_operator = ">"
quantitative_readout = 8

[[record]]
compound = "CC(C)/N=c1\\cc2n(-c3ccc(Cl)cc3)c3ccccc3nc-2cc1Nc1ccc(Cl)cc1 [CLO, clofazimine]"
inequality_operator = "="
quantitative_readout = 10

